Test system: NL4.3 3F11 res.
ASSAY PROTOCOL: microbe, parasite or virus in culture
Assay type: cell-based, HIV-1
EXPERIMENTAL CONDITIONS: Human immunodeficiency virus 1, PBMC, read-out: IC50 PBMC NL4.3 3F11 res. n = 2
QUANTITY NAME: IC50 (nM)
Give bare numbers, in nM.

Give the measured IC50 of c1cc(CN2CCCNCCNCCCNCC2)ccc1CN1CCCNCCNCCCNCC1 .
20
